Test system: yeast HSP78 (YDR258C) sequence
Assay: Duplex melting temperatures of HSP78 25-mer capture probes (UV spectrophotometer)
Details: 25-mer capture probe duplex with complementary target; design PM = perfectly matched, MM = single mismatch; DNA, LNA_T (T) or LNA_TC (TC) substituted
l = locked nucleic acid (LNA); [5mC] = 5-methylcytosine; d = 2'-deoxy (DNA)
measuredProperty: Average duplex melting temp.
Please don't drop the unit; write it after the number.

Solved entries (count: 3):
Asked: Reported Average duplex melting temp. for 12707 (DNA TTGGAAACATCGCGGTGCGCTTTTT; sugars from the 5' end lldddddddldddddlddddlllld, backbone not given here) [compound 12707] : what is it?
Given back: 68.6 °C

Asked: Could you share which Average duplex melting temp. value was measured for 12726 (DNA ATTGACCTCAAATCTTTCTTGGATA; sugars from the 5' end dllddddlddddddllldlldddld, backbone not given here) [compound 12726] ?
Given back: 65.1 °C

Asked: Which Average duplex melting temp. is listed for 12760 (DNA GACCTAAGAACATAAAGCTGGCAAT; DNA, backbone not given here; further chemistry not fully specified) [compound 12760] ?
Given back: 63.5 °C

Others:
Asked: Given the entry 12735 (DNA ATCAAATAGGAAATCAGCTAAAGCC; sugars from the 5' end dlldddldddddddlddllddddld, [5mC] at 3, 15, 18, 24, backbone not given here) [compound 12735] , report its measured Average duplex melting temp..
Given back: 64.6 °C

Asked: Consider the substance shown here: 12807 (DNA ATCAAATAGGAATTCAGCTAAAGCC; sugars from the 5' end dlldddldddddldlddllddddld, [5mC] at 3, 15, 18, 24, backbone not given here; further chemistry not fully specified) [compound 12807] What is its recorded Average duplex melting temp.?
Given back: 71.4 °C

These entries and their values trace back to patent US9464106B2.
